Assay: Selectivity index, ratio of CC50 for cytotoxicity against MDCK cells infected with Influenza A virus A/Puerto Rico/8/34 (H1N1) to IC50 for antiviral activity against Influenza A virus A/Puerto Rico/8/34 (H1N1) infected in MDCK cells
Assay type: toxicity, cell-based
Conditions: dog; read-out: Ratio CC50/IC50
Reported Property: selectivity ratio

[[record]]
compound_structure_string = "CC1(C)[C@@H]2CC[C@@]1(c1nc(Cc3ccc(F)cc3)no1)C(=O)C2"
reported_property = "selectivity ratio"
obs_value = "< 5"

[[record]]
compound_structure_string = "CCc1noc([C@]23CC[C@H](CC2=O)C3(C)C)n1"
reported_property = "selectivity ratio"
obs_value = "> 4"

[[record]]
compound_structure_string = "CC(C)(C)c1noc([C@]23CC[C@H](CC2=O)C3(C)C)n1"
reported_property = "selectivity ratio"
obs_value = "< 3"

[[record]]
compound_structure_string = "CC1(C)[C@@H]2CC[C@@]1(c1nc(-c3cccnc3)no1)C(=O)C2"
reported_property = "selectivity ratio"
obs_value = "> 79"

[[record]]
compound_structure_string = "CC1(C)[C@@H]2CC[C@@]1(C(=O)O/N=C(\\N)c1cccnc1)C(=O)C2"
reported_property = "selectivity ratio"
obs_value = "> 10"

[[record]]
compound_structure_string = "CC1(C)[C@@H]2CC[C@@]1(c1nc(Cc3ccc(Br)cc3)no1)C(=O)C2"
reported_property = "selectivity ratio"
obs_value = "> 60"

[[record]]
compound_structure_string = "CC1(C)[C@@H]2CC[C@@]1(c1nc(-c3cccc(F)c3)no1)C(=O)C2"
reported_property = "selectivity ratio"
obs_value = "> 231"

[[record]]
compound_structure_string = "CC1(C)[C@@H]2CC[C@@]1(c1nc(Cc3ccc(Cl)cc3)no1)C(=O)C2"
reported_property = "selectivity ratio"
obs_value = "> 25"

[[record]]
compound_structure_string = "CC1(C)[C@@H]2CC[C@@]1(C(=O)O/N=C(\\N)c1ccc(C(F)(F)F)cc1)C(=O)C2"
reported_property = "selectivity ratio"
obs_value = "> 2"


---

Experiment: Cytotoxicity against MDCK cells infected with Influenza A virus A/Puerto Rico/8/34 (H1N1) assessed as reduction in cell viability
Format: toxicity, cell-based, Canis lupus familiaris
Details: dog
Assign labels as follows, please: 1 for CC50 below 400 µM; 0 for CC50 equal to or exceeding 400 µM.

[[record]]
compound = "CC(C)(C)/C(N)=N/OC(=O)[C@]12CC[C@H](CC1=O)C2(C)C"
category_label = 0

[[record]]
compound = "CC1(C)[C@@H]2CC[C@@]1(c1nc(Cc3ccc(Br)cc3)no1)C(=O)C2"
category_label = 0

[[record]]
compound = "CC1(C)[C@@H]2CC[C@@]1(C(=O)O/N=C(\\N)c1ccccc1)C(=O)C2"
category_label = 1

[[record]]
compound = "CC1(C)[C@@H]2CC[C@@]1(c1nc(-c3ccncc3)no1)C(=O)C2"
category_label = 0

[[record]]
compound = "CC1(C)[C@@H]2CC[C@@]1(C(=O)O/N=C(\\N)c1ccc(C(F)(F)F)cc1)C(=O)C2"
category_label = 0

[[record]]
compound = "CN(C)Cc1noc([C@]23CC[C@H](CC2=O)C3(C)C)n1"
category_label = 0

[[record]]
compound = "CCc1noc([C@]23CC[C@H](CC2=O)C3(C)C)n1"
category_label = 0

[[record]]
compound = "CC1(C)[C@@H]2CC[C@@]1(C(=O)O/N=C(\\N)c1ccccn1)C(=O)C2"
category_label = 0

[[record]]
compound = "CC1(C)[C@@H]2CC[C@@]1(c1nc(-c3ccc(F)cc3)no1)C(=O)C2"
category_label = 1

[[record]]
compound = "CC1(C)[C@@H]2CC[C@@]1(C(=O)O/N=C(\\N)c1ccncc1)C(=O)C2"
category_label = 0

[[record]]
compound = "CC1(C)[C@@H]2CC[C@@]1(C(=O)O/N=C(\\N)Cc1ccc(F)cc1)C(=O)C2"
category_label = 1

[[record]]
compound = "CC1(C)[C@@H]2CC[C@@]1(c1nc(-c3ccccn3)no1)C(=O)C2"
category_label = 0

[[record]]
compound = "CC1(C)[C@@H]2CC[C@@]1(c1nc(-c3ccccc3)no1)C(=O)C2"
category_label = 1

[[record]]
compound = "CC1(C)[C@@H]2CC[C@@]1(c1nc(-c3ccccc3F)no1)C(=O)C2"
category_label = 0

[[record]]
compound = "CC(N)C12CC3CC(CC(C3)C1)C2 (stereo not given) [RIMANTADINE]"
category_label = 1

[[record]]
compound = "Cc1noc([C@]23CC[C@H](CC2=O)C3(C)C)n1"
category_label = 0

[[record]]
compound = "CC(C)c1noc([C@]23CC[C@H](CC2=O)C3(C)C)n1"
category_label = 0

[[record]]
compound = "CC1(C)[C@@H]2CC[C@@]1(c1nc(-c3cccnc3)no1)C(=O)C2"
category_label = 0

[[record]]
compound = "CC1(C)[C@@H]2CC[C@@]1(c1nc(Cc3ccc(Cl)cc3)no1)C(=O)C2"
category_label = 0

[[record]]
compound = "CC1(C)[C@@H]2CC[C@@]1(C(=O)O/N=C(\\N)c1ccc(Br)cc1)C(=O)C2"
category_label = 1

[[record]]
compound = "CN(C)C/C(N)=N/OC(=O)[C@]12CC[C@H](CC1=O)C2(C)C"
category_label = 0

[[record]]
compound = "CC1(C)[C@@H]2CC[C@@]1(C(=O)O/N=C(\\N)Cc1ccc(Cl)cc1)C(=O)C2"
category_label = 1

[[record]]
compound = "CC1(C)[C@@H]2CC[C@@]1(c1nc(-c3ccc(Br)cc3)no1)C(=O)C2"
category_label = 1

